experimental_details: Evaluation of solubility (visual appearance of stored solutions in aliphatic hydrocarbon solvents)
Assay type: physicochemical
protocol_conditions: organic solvent or mixture; 0.6 wt % (≈3 mM) borate compound/n-hexane solution, stored at −15° C. for 3 days, visual observation

- compound: "CCCCCCCCCCCCCCCCN(CCCCCCCCCCCCCCCC)c1ccccc1 [Comparative Example 1]"
  solubility at 3 days: "< 3000 µM"
